# subjectOfTest: EGFR Del19/T790M/C797S (Homo sapiens, UniProt P00533, C797S/DEL746-750/T790M)
# Sequence (P00533 with tags, fused parts or gaps DEL746-750/T790M/C797S): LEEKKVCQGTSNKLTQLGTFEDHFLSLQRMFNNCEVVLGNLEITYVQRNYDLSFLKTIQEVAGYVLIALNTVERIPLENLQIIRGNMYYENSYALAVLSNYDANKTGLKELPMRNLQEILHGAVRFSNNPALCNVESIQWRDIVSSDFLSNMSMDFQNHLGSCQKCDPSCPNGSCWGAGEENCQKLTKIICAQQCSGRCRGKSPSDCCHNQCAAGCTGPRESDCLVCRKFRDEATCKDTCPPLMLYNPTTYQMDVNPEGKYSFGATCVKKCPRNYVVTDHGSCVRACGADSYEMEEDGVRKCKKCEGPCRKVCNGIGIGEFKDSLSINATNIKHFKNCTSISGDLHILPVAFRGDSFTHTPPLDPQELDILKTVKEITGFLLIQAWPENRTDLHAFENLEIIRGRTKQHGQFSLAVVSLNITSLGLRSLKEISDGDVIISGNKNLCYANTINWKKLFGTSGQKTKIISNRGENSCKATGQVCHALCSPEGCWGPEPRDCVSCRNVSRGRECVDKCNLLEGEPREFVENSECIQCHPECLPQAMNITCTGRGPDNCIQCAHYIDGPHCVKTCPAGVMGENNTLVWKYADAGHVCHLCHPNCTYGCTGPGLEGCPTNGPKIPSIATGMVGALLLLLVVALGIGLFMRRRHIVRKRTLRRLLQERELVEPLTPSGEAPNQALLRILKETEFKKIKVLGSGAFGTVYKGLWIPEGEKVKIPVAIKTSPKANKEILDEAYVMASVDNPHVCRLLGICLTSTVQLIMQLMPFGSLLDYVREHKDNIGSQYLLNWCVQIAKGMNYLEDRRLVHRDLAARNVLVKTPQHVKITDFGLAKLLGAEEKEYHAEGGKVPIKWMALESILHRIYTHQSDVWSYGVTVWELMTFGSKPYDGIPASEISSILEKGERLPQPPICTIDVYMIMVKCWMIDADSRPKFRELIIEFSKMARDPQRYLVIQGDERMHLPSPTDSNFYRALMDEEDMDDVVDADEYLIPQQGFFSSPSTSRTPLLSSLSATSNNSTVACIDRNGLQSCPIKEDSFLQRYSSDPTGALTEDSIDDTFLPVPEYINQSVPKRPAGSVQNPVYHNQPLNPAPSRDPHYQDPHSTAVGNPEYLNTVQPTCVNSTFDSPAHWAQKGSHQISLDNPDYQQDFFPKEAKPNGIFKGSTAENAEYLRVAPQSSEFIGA
# runDescription: Biochemical EGFR kinase inhibition assay (Lance Ultra TR-FRET), triple mutant del19/T790M/C797S
# setupConditions: ATP at Km; read-out: IC50 Del19/T790M/C797S (nM), Km ATP
Where a name gives a salt, the structure may show the parent alone.
endpointName: log10(IC50) (log10 of the value in nM)
In our notation, the value equals log10 of IC50 in nM.

Query (compound): "CC1(CO)CCN(c2cc(Nc3ccnc(-c4cnn(S(=O)(=O)C5CC5)c4)n3)ncc2C#CC2(O)CCCC2)CC1" ; field requested: log10(IC50)
-0.22

Dear colleague, I am looking for the recorded log10(IC50) of the following compound: CC1(CO)CCN(c2cc(Nc3ccnc(-c4cnn(S(=O)(=O)C5CC5)c4)n3)ncc2C#CC2CC(C(C)(C)O)C2)CC1 (stereo not drawn)
0.00

Can you share its log10(IC50)? I mean this compound: "CC1(CO)CCN(c2cc(Nc3ccnc(-c4cnn(S(=O)(=O)C5CC5)c4)n3)ncc2C#CC2CCOCC2)CC1"
-0.40

I would be grateful if you could share the reported log10(IC50) for "CC1(CO)CCN(c2cc(Nc3ccnc(-c4cnn(S(=O)(=O)C5CC5)c4)n3)ncc2C#CC2CC2)CC1" .
-0.15

Recorded log10(IC50) for "Cn1cc(C#Cc2cnc(Nc3ccnc(-c4cnn(S(=O)(=O)C5CC5)c4)n3)cc2N2CC3(CCNCC3)C2)cn1" , please?
-0.22

I am curious: what log10(IC50) value has been reported for "COC1(C)CCN(c2cc(Nc3ccnc(-c4cnn(S(=O)(=O)C5CC5)c4)n3)ncc2C#Cc2cccnc2)CC1" ?
1.01

Any idea what its log10(IC50) is? The compound is "CC1(CO)CCN(c2cc(Nc3ccnc(-c4cnn(S(=O)(=O)C5CC5)c4)n3)ncc2C#CC2(O)CCCCC2)CC1"
0.08

# query: log10(IC50) of entry "CC1(CO)CCN(c2cc(Nc3ccnc(-c4cnn(S(=O)(=O)C5CC5)c4)n3)ncc2C#Cc2cnc(CN3CCOCC3)s2)CC1"
0.00

Recorded log10(IC50) for CN(C)CCC1CCN(c2cc(Nc3ccnc(-c4cnn(S(=O)(=O)C5CC5)c4)n3)ncc2C#Cc2cnn(C)c2)CC1 [Example 294, formate] , please?
-1.00

Need log10(IC50) of CN(C)CC1(F)CCN(c2cc(Nc3ccnc(-c4cnn(S(=O)(=O)C5CC5)c4)n3)ncc2C#Cc2cnn(C)c2)CC1 [Example 293, formate] , thanks.
-1.00

Would you mind telling me what log10(IC50) value was observed for "CN(C)CC1(C)CCN(c2cc(Nc3ccnc(-c4cnn(S(=O)(=O)C5CC5)c4)n3)ncc2C#Cc2cnn(CC(F)F)c2)CC1" ?
-1.00

Recorded log10(IC50) for "CC(C)Nc1cc(Nc2ccnc(-c3cnn(S(=O)(=O)C4CC4)c3)n2)ncc1C#CCCCNC(=O)N1CCOCC1" , please?
0.32
